B1: STUB1, expressed from a plasmid in 293T cells [not stated] / MIF in 293T cells [not stated] (parent complex)
chain 1: MKGKEEKEGGARLGAGGGSPEKSPSAQELKEQGNRLFVGRKYPEAAACYGRAITRNPLVAVYYTNRALCYLKMQQHEQALADCRRALELDGQSVKAHFFLGQCQLEMESYDEAIANLQRAYSLAKEQRLNFGDDIPSALRIAKKKRWNSIEERRIHQESELHSYLSRLIAAERERELEECQRNHEGDEDDSHVRAQQACIEAKHDKYMADMDELFSQVDEKRKKRDIPDYLCGKISFELMREPCITPSGITYDRKDIEEHLQRVGHFDPVTRSPLTQEQLIPNLAMKEVIDAFISENGWVEDY
chain 2: PMFIVNTNVPRASVPDGFLSELTQQLAQATGKPPQYIAVHVVPDQLMAFGGSSEPCALCSLHSIGKIGGAQNRSYSKLLCGLLAERLRISPDRVYINYYDMNAANVGWNNSTFA

# Variants of: B1
# assayNotes: co-immunoprecipitation (IP: Myc, IB: MIF) and western blot, band quantification; 293T cells transfected for 24 h with STUB1 mutation plasmids; triplicate experiments, mean ± SD; read off a plot
experimentalEndpoint: response

INSERT INTO assay_data (variantnotation, experimentalendpoint, recordedmeasurement) VALUES
  ('chain 1 W147A', 'response', '~1 MIF/Input ratio'),
  ('chain 1 S149A', 'response', '~1 MIF/Input ratio'),
  ('chain 1 R66A', 'response', '~0.25 MIF/Input ratio'),
  ('chain 1 K143A', 'response', '~0.22 MIF/Input ratio');

The origin of these recorded values is paper PMC8777168.
